Reference for the values: PubChem BioAssay (NCI)

tested on: PC-3 prostate; assay: NCI tumour cell line growth inhibition, 48 h
metric: TGI (µM)
Give just the numeric value; µM need not be written.

Documented TGI of `COc1ccc(CNc2c3ccccc3nc3ccccc23)cc1OC` : 9.97

Documented TGI of O=C1/C(=C\c2ccc([N+](=O)[O-])o2)SC2N=C(COc3ccc(Cl)cc3)NN12 (stereo not drawn) : 24.4

---

For each entry below, report its TGI value.
system: SNB-75 CNS; test: NCI tumour cell line growth inhibition, 48 h

Documented TGI of `CN1CCc2c(Sc3ccc(C(=O)NO)cc3)c3ccccc3n2C1` : 3.79 µM

Documented TGI of COc1ccc2c(c1C)C(=O)C(O)(CC=C(C)C)O2 (stereo unspecified) : > 100 µM

Documented TGI of `Cc1cccc(NC(=O)/C=C/c2ccc(N(CCC#N)CCC#N)cc2C)c1` : > 100 µM

Documented TGI of `CCN(CC)CCOc1ccc(/C(=C(\C)c2ccc(F)c(OC)c2)c2ccc(Cl)cc2)cc1` : 4.84 µM

Documented TGI of CC12CCC(C(=O)OC1=O)C2(C)C (stereo unspecified) : > 100 µM

Documented TGI of `CN(C)c1ccc2nc3ccc(=O)cc-3sc2c1` : > 100 µM

---

For each entry below, report its TGI value.
test system: HCT-116 colon; test: NCI tumour cell line growth inhibition, 48 h

For COc1cc2c(cc1OC)C13CCN4CC5=CCOC6CC(=O)N2C1C6C5CC43O (stereo not given) on HCT-116 colon, measured TGI was > 100 µM

For `CCOC(=O)CCc1c(C)c2c(OC(C)=O)cc(OC(C)=O)cc2oc1=O` on HCT-116 colon, measured TGI was > 100 µM

For CC(=O)OC1CC2c3cccc4c3C(CC2N(C)C1=O)CN4C(=O)c1ccccc1 (stereo not given) on HCT-116 colon, measured TGI was 32.8 µM

For `CC(=O)O[C@@H]1C[C@]2(C(C)C)O[C@@]1(C)[C@@H]1CCC(C)=C1[C@@H]2OC(=O)/C=C/c1ccccc1` on HCT-116 colon, measured TGI was > 100 µM

For `O=C(C[n+]1ccccc1)NNC(=O)/C(=C/c1ccc2c(c1)OCO2)NC(=O)c1ccccc1` on HCT-116 colon, measured TGI was > 100 µM

For `CC1=C(Br)C(Br)=C(C)S1=O` on HCT-116 colon, measured TGI was 18.2 µM

For `CCN(CC)CCNCC(=O)Oc1ccc(/C=C/C(=O)CC(=O)/C=C/c2ccc(OC(=O)CNCCN(CC)CC)c(OC)c2)cc1OC` on HCT-116 colon, measured TGI was 12.3 µM

For COc1ccc2c(c1C)C(=O)C(O)(CC=C(C)C)O2 (stereo not given) on HCT-116 colon, measured TGI was > 100 µM

For CSC1(CC(=O)N(C)C)C(=O)Nc2ccccc21 (stereo not given) on HCT-116 colon, measured TGI was > 100 µM

For O=C1C(Cl)C(c2ccccc2)N1n1cnc2ccccc2c1=O (stereo not given) on HCT-116 colon, measured TGI was > 100 µM

---

test system: SW-620 colon; assay: NCI tumour cell line growth inhibition, 48 h; in the data active = GI50 below about 0.43 µM; inactive = the rest
A correct response names exactly one class from active, inactive

// query Dear colleague, could you share the recorded outcome for `O=C(N/N=C\c1cc(Br)ccc1O)c1ccncc1` when you have a moment?
// result inactive

// query Dear colleague, could you share the recorded outcome for `C#C[C@]1(O)CC[C@H]2[C@@H]3CC=C4c5sc(Nc6ccccc6)nc5CC[C@]4(C)[C@H]3CC[C@@]21C` when you have a moment?
// result inactive

// query Dear colleague, could you share the recorded outcome for `CC(=O)Oc1ccc(Nc2c3ccccc3nc3ccccc23)cc1` when you have a moment?
// result inactive

// query Dear colleague, could you share the recorded outcome for `Nc1ccncc1/C=C1/C(=O)Nc2ccccc21` when you have a moment?
// result inactive

// query Dear colleague, could you share the recorded outcome for `Cc1c[n+](Cc2ccc3ccccc3c2)cn1Cc1ccc2ccccc2c1` when you have a moment?
// result inactive

// query Dear colleague, could you share the recorded outcome for `Fc1ccc(Nc2cc(-n3nnc4ccccc43)nc3ccccc23)cc1` when you have a moment?
// result inactive

// query Dear colleague, could you share the recorded outcome for `O=C1c2ccn(CCCCNC(CO)(CO)CO)c2C(=O)c2c1c(O)c1ccccc1c2O` when you have a moment?
// result inactive

// query Dear colleague, could you share the recorded outcome for `COc1cc2cn3c4ccc(O)cc4[nH]c(=O)c3c2cc1OC` when you have a moment?
// result active

// query Dear colleague, could you share the recorded outcome for `Nc1c(C(=O)N/N=C/c2ccc(-c3ccc(Cl)cc3)o2)cnn1-c1ccnc2c(C(F)(F)F)cccc12` when you have a moment?
// result inactive

// query Dear colleague, could you share the recorded outcome for `CCN(CC)CCNCC(=O)Oc1ccc(/C=C/C(=O)CC(=O)/C=C/c2ccc(OC(=O)CNCCN(CC)CC)c(OC)c2)cc1OC` when you have a moment?
// result inactive

// query Dear colleague, could you share the recorded outcome for COc1ccc(/C=c2/sc3n(c2=O)C(c2ccc(OC)c(OC)c2)C2=C(N=3)c3cc(F)ccc3OC2)cc1 (centres undefined) when you have a moment?
// result inactive

// query Dear colleague, could you share the recorded outcome for `COc1ccc(-n2cc(-c3ccc(Cl)c(Cl)c3)nc2SCc2cccc(C#N)c2)cc1` when you have a moment?
// result inactive

// query Dear colleague, could you share the recorded outcome for CC(=O)OCC1OC([S-])C(OC(C)=O)C(OC(C)=O)C1OC(C)=O.CC[PH+](CC)CC.CC[PH+](CC)CC.[Au].[Au] (centres undefined) when you have a moment?
// result active

// query Dear colleague, could you share the recorded outcome for `CC(=O)c1c(CBr)n([O-])c2ccccc2[n+]1=O` when you have a moment?
// result inactive
